- study.target: wild-type human cardiac sodium channel, hNav1.5 (Homo sapiens, UniProt Q14524)
- Sequence (Q14524 whole entry): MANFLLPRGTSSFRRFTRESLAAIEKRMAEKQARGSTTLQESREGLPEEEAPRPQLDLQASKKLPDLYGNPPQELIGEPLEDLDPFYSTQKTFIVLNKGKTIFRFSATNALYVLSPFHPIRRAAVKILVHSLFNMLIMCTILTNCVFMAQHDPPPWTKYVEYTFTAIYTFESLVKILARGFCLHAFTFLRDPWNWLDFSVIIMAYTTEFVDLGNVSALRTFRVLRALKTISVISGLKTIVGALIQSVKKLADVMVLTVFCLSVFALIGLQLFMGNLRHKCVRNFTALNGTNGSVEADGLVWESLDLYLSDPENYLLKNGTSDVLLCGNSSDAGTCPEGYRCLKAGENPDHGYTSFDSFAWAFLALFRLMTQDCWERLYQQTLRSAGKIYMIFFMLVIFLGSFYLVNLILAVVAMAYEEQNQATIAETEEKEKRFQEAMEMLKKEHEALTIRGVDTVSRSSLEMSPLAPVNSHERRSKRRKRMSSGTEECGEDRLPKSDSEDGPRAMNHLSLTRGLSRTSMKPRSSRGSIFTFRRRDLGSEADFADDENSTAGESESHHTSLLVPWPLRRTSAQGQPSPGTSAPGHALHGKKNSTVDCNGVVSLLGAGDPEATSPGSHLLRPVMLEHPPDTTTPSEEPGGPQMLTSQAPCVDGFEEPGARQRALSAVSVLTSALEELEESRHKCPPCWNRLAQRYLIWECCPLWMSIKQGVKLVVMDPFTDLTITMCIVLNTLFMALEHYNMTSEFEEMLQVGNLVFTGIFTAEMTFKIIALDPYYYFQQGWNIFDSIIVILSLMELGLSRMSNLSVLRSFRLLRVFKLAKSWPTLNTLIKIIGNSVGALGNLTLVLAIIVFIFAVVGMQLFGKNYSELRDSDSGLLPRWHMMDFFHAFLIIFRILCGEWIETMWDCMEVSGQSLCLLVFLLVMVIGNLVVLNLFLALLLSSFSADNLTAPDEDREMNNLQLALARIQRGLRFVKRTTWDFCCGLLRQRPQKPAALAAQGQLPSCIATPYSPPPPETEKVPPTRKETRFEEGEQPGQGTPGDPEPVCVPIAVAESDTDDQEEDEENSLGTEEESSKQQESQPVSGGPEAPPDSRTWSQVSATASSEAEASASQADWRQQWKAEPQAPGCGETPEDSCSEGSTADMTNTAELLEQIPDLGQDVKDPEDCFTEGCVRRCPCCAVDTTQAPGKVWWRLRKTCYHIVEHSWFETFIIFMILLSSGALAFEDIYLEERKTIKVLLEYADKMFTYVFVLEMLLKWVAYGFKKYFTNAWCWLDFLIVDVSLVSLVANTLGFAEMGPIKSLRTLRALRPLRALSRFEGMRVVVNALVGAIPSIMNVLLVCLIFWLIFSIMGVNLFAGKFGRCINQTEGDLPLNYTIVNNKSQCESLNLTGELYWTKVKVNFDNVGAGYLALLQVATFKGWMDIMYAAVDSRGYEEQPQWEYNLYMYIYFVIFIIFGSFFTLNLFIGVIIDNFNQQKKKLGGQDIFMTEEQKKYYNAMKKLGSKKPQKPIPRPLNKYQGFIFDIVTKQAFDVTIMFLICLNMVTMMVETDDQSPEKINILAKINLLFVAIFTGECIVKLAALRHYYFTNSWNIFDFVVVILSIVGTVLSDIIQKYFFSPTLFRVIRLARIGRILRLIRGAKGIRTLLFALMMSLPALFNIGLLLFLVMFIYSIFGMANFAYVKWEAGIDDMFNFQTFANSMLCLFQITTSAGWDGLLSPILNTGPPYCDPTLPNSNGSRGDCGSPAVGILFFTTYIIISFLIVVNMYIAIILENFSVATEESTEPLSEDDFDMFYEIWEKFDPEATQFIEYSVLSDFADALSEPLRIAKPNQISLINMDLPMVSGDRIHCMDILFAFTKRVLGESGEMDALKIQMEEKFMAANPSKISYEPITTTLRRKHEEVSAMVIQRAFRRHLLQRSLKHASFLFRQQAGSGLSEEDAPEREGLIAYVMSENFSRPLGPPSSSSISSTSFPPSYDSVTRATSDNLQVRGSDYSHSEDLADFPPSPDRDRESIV
- test.protocol: Peak INa screening assay (tonic block and use-dependent block)
- Format: cell-based
- cond: tonic block of Peak INa, 0.1 Hz, holding -100 mV, read-out: Peak TB 3 uM
Assign fulfilled whenever inhibition at 3 µM does not fall below 30%; assign not fulfilled whenever it does.

- FC(F)(F)Oc1ccc(-c2ccc3onc(Oc4ncccn4)c3c2)cc1: fulfilled
- OCc1cn(-c2noc3ccc(-c4ccc(OC(F)(F)F)cc4)cc23)cn1: not fulfilled
- FC(F)(F)Oc1ccc(-c2ccc3onc(-n4ccnc4)c3c2)cc1: not fulfilled
- Cc1nccn1CCOc1noc2ccc(-c3ccc(OC(F)(F)F)cc3)cc12: not fulfilled

====

- study.target: hNav1.1 (SCN1A) (Homo sapiens, UniProt P35498)
- test.protocol: Use-dependent inhibition of the CNS Nav1.1 sodium channel
- Format: cell-based
- cond: use-dependent block, 25 Hz, pulse 20, read-out: Nav1.1 UDB 25 Hz 10 uM
Assign YES whenever inhibition at 10 µM does not fall below 40%; assign NO whenever it does.

* COc1cc(OC(F)(F)F)ccc1-c1ccc2onc(OCc3ncccn3)c2c1 | NO
* Fc1cc2onc(OCc3ncccn3)c2cc1-c1ccc2c(c1)OC(F)(F)O2 | NO
* O=C1CCCN1CCNc1noc2ccc(-c3ccc(OC(F)(F)F)cc3)cc12 | YES
* CC(COc1noc2ccc(-c3ccc(OC(F)(F)F)cc3)cc12)n1cccn1 (stereo not drawn) | NO
* FC(F)(F)Oc1ccc(-c2ccc3onc(OCCn4cnnc4)c3c2)cc1 | YES
* Cn1cncc1COc1noc2ccc(-c3ccc(OC(F)(F)F)cc3)cc12 | YES
* COc1ccnc(COc2noc3ccc(-c4ccc(OC(F)(F)F)cc4)cc23)n1 | NO
* COc1cc2onc(OCc3ncccn3)c2cc1-c1ccc(F)c(Cl)c1 | NO
* FC(F)(F)Oc1ccc(-c2ccc3onc(OC[C@@H]4CCCN4)c3c2)cc1 | YES
* Cc1cccc(COc2noc3ccc(-c4ccc(OC(F)(F)F)cc4)cc23)n1 | NO
* CC1(COc2noc3ccc(-c4ccc(OC(F)(F)F)cc4)cc23)COC1 | NO
* FC(F)(F)Oc1ccc(-c2ccc3onc(-n4ccnc4)c3c2)cc1 | NO
* Cc1nnc(COc2noc3ccc(-c4ccc(OC(F)(F)F)cc4)cc23)o1 | NO
* Cc1cc(-c2ccc3onc(OCc4ncccn4)c3c2)ccc1OC(F)(F)F | NO
* CC(COc1noc2ccc(-c3ccc(OC(F)(F)F)cc3)cc12)n1cncn1 (stereo not drawn) | YES
* FC(F)(F)Oc1ccc(-c2ccc3onc(OCc4nnc(C5CC5)s4)c3c2)cc1 | NO
* Cc1cccnc1COc1noc2ccc(-c3ccc(OC(F)(F)F)cc3)cc12 | NO
* FC(F)(F)Oc1cccc(-c2ccc3onc(OCc4ncccn4)c3c2)c1 | NO
* CCN(CC)C(=O)COc1noc2ccc(-c3ccc(OC(F)(F)F)cc3)cc12 | YES
* Cc1cc(-c2cc(C)c3onc(OCc4ncccn4)c3c2)ccc1OC(F)(F)F | NO
* Cc1cc2onc(OCc3ncccn3)c2cc1-c1ccc(C(F)(F)F)cc1F | NO
* CC(C)c1nnc(COc2noc3ccc(-c4ccc(OC(F)(F)F)cc4)cc23)o1 | NO
* C[C@@H](N)COc1noc2ccc(-c3ccc(OC(F)(F)F)cc3)cc12 | YES
* Cc1nnc(COc2noc3ccc(-c4ccc(OC(F)(F)F)cc4)cc23)s1 | NO
* CC(C)(C)OC(=O)COc1noc2ccc(-c3ccc(OC(F)(F)F)cc3)cc12 | NO
* CN1CCN(c2noc3ccc(-c4ccc(OC(F)(F)F)cc4)cc23)CC1 | YES
* Cc1nnc(COc2noc3c(F)cc(-c4ccc(OC(F)(F)F)cc4)cc23)o1 | YES
* Cc1cccc(CNc2noc3ccc(-c4ccc(OC(F)(F)F)cc4)cc23)n1 | NO
* O=C1CCCN1CCOc1noc2ccc(-c3ccc(OC(F)(F)F)cc3)cc12 | YES
* FC(F)(F)Oc1ccc(-c2ccc3onc(OCc4ncccn4)c3c2)cc1 | NO
* CCn1cncc1COc1noc2ccc(-c3ccc(OC(F)(F)F)cc3)cc12 | YES
* FC(F)(F)Oc1ccc(-c2ccc3onc(Oc4ncccn4)c3c2)cc1 | NO
* COCCOc1noc2ccc(-c3ccc(OC(F)(F)F)cc3)cc12 | NO
* FC(F)(F)Oc1ccc(-c2ccc3onc(OCc4ncco4)c3c2)cc1 | NO
* CC(Oc1noc2ccc(-c3ccc(OC(F)(F)F)cc3)cc12)c1ccccn1 (stereo not drawn) | NO
